- METHOD NOTES: Mycobacterium tuberculosis growth inhibition, primary screen (AID 1259343)
- TEST CONDITIONS: 10 uM
Out of some 6,200 compounds screened, about 2,900 (47%) were called active. So high a share suggests a set chosen from earlier hits. This is one part of the list.
PROPERTY: outcome

MOLECULE | outcome
COc1cccc(CNC(=O)c2ccc(-c3ccc(F)cc3)s2)c1 | inactive
COc1ccc(C(=O)N2CCCC(C(=O)c3ccc(-c4ccccc4)c(F)c3)C2)o1 (stereo unspecified) | inactive
COc1ccc(NC2CC(O)C(CO)O2)cc1 (stereo unspecified) | inactive
O=C(c1cc(COc2cccc(C(F)(F)F)c2)on1)N1CCCN(c2ncccn2)CC1 | inactive
CCc1ccc(CN(C)C(=O)c2cc(COc3cncc(Cl)c3)on2)cc1 | inactive

IN: Consider the molecule shown here: "CSc1ccc(-c2nc(CN3CCN(c4cnccn4)CC3)c(C)o2)cc1" What is its recorded outcome?
OUT: inactive

IN: Name the recorded outcome for "CN1CCc2c(sc(NC(=O)c3ccco3)c2-c2nc3ccccc3s2)C1" .
OUT: inactive

IN: Request the reported outcome associated with "CC(C)Oc1ccc(CCNC(=O)c2cc(COc3ccc(F)c(F)c3)on2)cc1"
OUT: inactive

IN: Need outcome, item "O=C(C=Cc1cccs1)NC12CC3CC(CC(C3)C1)C2"
OUT: inactive

IN: If you can, please state the reported outcome value of "COCC(=O)N1CCC(C(=O)Nc2cccc(-c3cccc(Cl)c3)c2)CC1" .
OUT: inactive

IN: What does the record list as outcome for COc1ccc(C2N=C(c3ccccc3C)NO2)cc1O (stereo unspecified) ?
OUT: inactive

* * *

- METHOD NOTES: Mycobacterium tuberculosis growth inhibition, primary screen (AID 1259343)
- TEST CONDITIONS: at 10 µM, active compounds read high
Screen size: about 6,200 compounds; about 2,900 (47%) were called active. So high a share suggests a set chosen from earlier hits. The list shows a part of the results.
Measured inhibition values are reported for all entries that follow.
Express your answer in %, writing the number without its unit.

MOLECULE | UNIT ABBREV | inhibition
COc1ccc(CC(N)c2csc(Nc3cc(Oc4ccccc4)ncn3)n2)cc1 (configuration not stated) | % | 56.6
CC1CCC(C(C)C)C(OC(=O)Cn2c(-c3ccccc3)[n+](C)c3ccccc32)C1 (configuration not stated) | % | 36.3
O=C(Nc1ccc(Oc2ccccc2F)cc1)C1CCN(C(=O)C2=CCCC2)CC1 | % | 90.8
CSc1nc(NCC(C)C)c2cnn(CCNC(=O)CC(C)C)c2n1 | % | -2.36
NC(Cc1ccc(F)cc1)c1csc(Nc2cc(Oc3ccccc3)ncn2)n1 (configuration not stated) | % | 54.2

IN: // query inhibition value for entry "CN(N=Cc1sc2ccccc2c1O)c1ccccc1"
OUT: -9.99

IN: // query inhibition value for entry Cc1ncc(-c2ccc(NC(=O)C3CC3C)cc2)o1 (configuration not stated)
OUT: 94.6

IN: For the molecule "CC(=O)Nc1ccc(NC(=O)Cn2nc(C)c([N+](=O)[O-])c2C)cc1" , what inhibition is on record?
OUT: 92.6

IN: Look at this molecule and give its reported inhibition. "Cc1cc(=O)[nH]c(-n2nc(C)cc2NC(=O)c2cccc3ccccc23)n1"
OUT: 101

IN: State the recorded inhibition for this entry: "O=C(O)c1ccc(COc2cccc(Cl)c2)s1"
OUT: 81.8
